- Tested on: U87MG pLVX-IDH2 R140Q-neo cells
- experiment-summary: U87MG pLVX-IDH2 R140Q-neo cell based assay, 2-HG in media by LC-MS at 48 hours
- protocol-conditions: Homo sapiens, U-87 MG
quantity: IC50

Use the examples below as a reference point.
CC(C)(C)Nc1nc(Nc2ccnc(C3CC3)c2)nc(-c2cccc(C(F)(F)F)n2)n1 : < 100 nM
CC(C)Nc1nc(Nc2cc(F)cc(F)c2)nc(-c2cc(O)cc(O)c2)n1 : < 100 nM
CC(C)Nc1nc(Nc2cccc(C#N)c2)nc(-c2ccccc2)n1 : < 100 nM
CC(C)(C)Nc1nc(Nc2cc(F)cc(S(C)(=O)=O)c2)nc(-c2cccc(O)c2)n1 : < 100 nM
CC(C)Nc1nc(Nc2ccncc2)nc(-c2cccc(O)c2)n1 : < 100 nM
CC(C)Nc1nc(Nc2cncc(F)c2)nc(-c2cccc(Cl)n2)n1 : < 100 nM

IN: Value lookup for IC50; key = `CC(C)Nc1nc(Nc2cccc(S(C)(=O)=O)c2)nc(-c2cc(Cl)cc(Cl)n2)n1`
OUT: 100 to 1000 nM

IN: Look at this molecule and give its reported IC50. `CC(C)(C)CNc1nc(Nc2ccc(F)nc2)nc(-c2ccccn2)n1`
OUT: < 100 nM

IN: Bench note: what IC50 did `c1ccc(-c2nc(NCC3CC3)nc(Nc3ccncc3)n2)cc1` show?
OUT: 100 to 1000 nM

###

- assayed-target: IDH2 R172K (Homo sapiens, UniProt P48735, R172K)
- Sequence (P48735 40-452 R172K): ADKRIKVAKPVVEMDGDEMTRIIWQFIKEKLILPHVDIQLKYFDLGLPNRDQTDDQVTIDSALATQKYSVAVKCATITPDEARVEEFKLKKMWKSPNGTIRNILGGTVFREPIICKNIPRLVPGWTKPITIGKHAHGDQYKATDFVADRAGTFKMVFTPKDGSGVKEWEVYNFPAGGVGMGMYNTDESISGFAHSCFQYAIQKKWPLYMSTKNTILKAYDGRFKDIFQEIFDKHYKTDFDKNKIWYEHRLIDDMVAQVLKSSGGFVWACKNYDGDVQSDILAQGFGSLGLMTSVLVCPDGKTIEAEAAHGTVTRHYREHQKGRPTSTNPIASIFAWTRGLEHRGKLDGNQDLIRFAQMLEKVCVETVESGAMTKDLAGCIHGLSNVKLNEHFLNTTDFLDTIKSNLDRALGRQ
- experiment-summary: IDH2 R172K enzymatic assay (NADPH cofactor depletion, diaphorase/resazurin readout)
- protocol-conditions: read-out: Enz R172K
- Description: Compounds are assayed for IDH2 R172K inhibitory activity through a cofactor depletion assay. […] The reaction is terminated by the addition of a second enzyme, diaphorase, and a corresponding substrate, resazurin. […]
pIC50: −log10 of the molar value.
The compounds listed here are annotated with their pIC50.

Record excerpt, results attached:
N#Cc1cc(Nc2nc(NC3C4COCC43)nc(-c3cccc(C(F)(F)F)n3)n2)ccn1 (centres unmarked) : 6.00 to 7.00
CC(C)Nc1nc(Nc2ccccc2)nc(-c2cccnc2)n1 : 5.00 to 6.00
FC(F)(F)c1cc(Nc2nc(NC3CCOCC3)nc(-c3cccc(C(F)(F)F)n3)n2)ccn1 : > 7.00
CC(C)(C)Nc1nc(Nc2ccnc(C(C)(F)F)c2)nc(-c2cccc(C(F)(F)F)n2)n1 : > 7.00
CC(C)Nc1nc(Nc2cccc(C#N)c2)nc(-c2ccccn2)n1 : 6.00 to 7.00
CC(C)Nc1nc(Nc2cccc(S(C)(=O)=O)c2)nc(-c2nc(F)ccc2F)n1 : 5.00 to 6.00
CC(C)Nc1nc(Nc2ccc(F)cc2F)nc(-c2ccccc2)n1 : 5.00 to 6.00
CC(C)Nc1nc(Nc2ccncc2)nc(-c2cccc(F)c2)n1 : 5.00 to 6.00

IN: For IDH2 R172K (Homo sapiens, UniProt P48735, R172K), provide pIC50 of `COc1ccc(F)c(-c2nc(Nc3cc(F)cc(F)c3)nc(NC(C)C)n2)n1` please.
OUT: > 7.00

IN: What reported pIC50 corresponds to `O=C(Nc1nc(Nc2ccccc2)nc(-c2ccccc2)n1)C1CC1` on IDH2 R172K (Homo sapiens, UniProt P48735, R172K)?
OUT: 6.00 to 7.00

IN: # value lookup — system IDH2 R172K (Homo sapiens, UniProt P48735, R172K), readout pIC50, item `Fc1cc(Nc2nc(NC3COC3)nc(-c3ccccc3F)n2)ccn1`
OUT: 6.00 to 7.00

IN: // fetch IDH2 R172K (Homo sapiens, UniProt P48735, R172K) pIC50 for `CC(C)Nc1nc(Nc2cc(F)cc(S(C)(=O)=O)c2)nc(-c2cccc(C(C)(F)F)n2)n1`
OUT: > 7.00

IN: Value wanted: pIC50 (IDH2 R172K (Homo sapiens, UniProt P48735, R172K)) of entry `CC(C)Nc1nc(Nc2ccccc2)nc(-c2cc(Cl)ccn2)n1`
OUT: 6.00 to 7.00
